Hey, just so you know, these numbers are from the supplement of paper PMC12669032.

- Tested on: Akkermansia muciniphila
- Method notes: growth AUC relative to DMSO control (median of replicates) (fraction); higher = more growth (less inhibition), active = hit call of the paper
- Measurement conditions: 20 µM; 24 h
Reported values of growth AUC for individual entries
Give the value as a plain number.

[
  {
    "Molecule": "CC(C)C(C(=O)OC(C#N)c1cccc(Oc2ccccc2)c1)c1ccc(Cl)cc1 (stereo not given)",
    "growth AUC": 0.88
  },
  {
    "Molecule": "COc1cc(C)c(C(=O)c2c(OC)ccc(Br)c2C)c(OC)c1OC",
    "growth AUC": 1.05
  },
  {
    "Molecule": "c1ccc2c(c1)ccc1c3ccccc3sc21",
    "growth AUC": 1.03
  },
  {
    "Molecule": "N#CN=C1SCCN1Cc1ccc(Cl)nc1",
    "growth AUC": 0.871
  }
]

We now examine a further molecule.
stdin: Look up growth AUC for this molecule: ClC1C(Cl)C(Cl)C(Cl)C(Cl)C1Cl (mixture of isomers)
stdout: 0.921

---

- System: Fusobacterium nucleatum subsp. animalis
- Method notes: growth AUC relative to DMSO control (median of replicates) (fraction); higher = more growth (less inhibition), active = hit call of the paper
- Measurement conditions: 20 µM; 24 h
Decide by growth AUC: equal to or exceeding 1 means T, less means F.

Consider the worked cases shown below.
[
  {
    "Molecule": "CC1(C)OC(c2ccco2)CN1C(=O)C(Cl)Cl (configuration not stated)",
    "Subject of test": "Fusobacterium nucleatum subsp. animalis",
    "Class name": "F"
  },
  {
    "Molecule": "[CH3][Hg][Cl]",
    "Subject of test": "Fusobacterium nucleatum subsp. animalis",
    "Class name": "F"
  },
  {
    "Molecule": "O=[N+]([O-])c1ccc(Oc2ccc(C(F)(F)F)cc2[N+](=O)[O-])cc1",
    "Subject of test": "Fusobacterium nucleatum subsp. animalis",
    "Class name": "F"
  }
]

Continue with the next molecule.
stdin: I'd appreciate it if you could say whether COc1ccccc1N has growth AUC at least equal to 1.
stdout: T

---

- System: Bacteroides stercoris
- Method notes: growth AUC relative to DMSO control (median of replicates) (fraction); higher = more growth (less inhibition), active = hit call of the paper
- Measurement conditions: 20 µM; 24 h
just bin them by growth AUC: lowest = under 0.9, middle = from 0.9 up to 1, highest = 1 and over

[
  {
    "Compound": "CCC(C)(NC(=O)c1cc(Cl)c(C)c(Cl)c1)C(=O)CCl (stereo not drawn)",
    "Class name": "lowest"
  },
  {
    "Compound": "O=c1ccc(=O)[nH][nH]1",
    "Class name": "middle"
  },
  {
    "Compound": "CCc1cc(C)cc(CC)c1-c1c(OC(=O)C(C)(C)C)n2n(c1=O)CCOCC2",
    "Class name": "highest"
  }
]

stdin: Which band does CCN(CC)C(=S)[S-].O.O.O.[Na+] fall in?
stdout: highest

stdin: Which band does COc1ccc(/C(=C/C(=O)N2CCOCC2)c2ccc(Cl)cc2)cc1OC fall in?
stdout: highest

stdin: Which band does COC(=O)c1cc(Oc2ccc(Cl)cc2Cl)ccc1[N+](=O)[O-] fall in?
stdout: lowest

stdin: Which band does CCCN(CCCl)c1c([N+](=O)[O-])cc(C(F)(F)F)cc1[N+](=O)[O-] fall in?
stdout: middle

stdin: Which band does COC(=O)C(C)Oc1ccc(Oc2ccc(Cl)cc2Cl)cc1 (stereo not drawn) fall in?
stdout: lowest

stdin: Which band does CNC(=O)Oc1cc(C)c(S(C)=O)c(C)c1 (stereo not drawn) fall in?
stdout: highest

stdin: Which band does CCCCC(O)(Cn1cncn1)c1ccc(Cl)cc1Cl (stereo not drawn) fall in?
stdout: highest

stdin: Which band does Cc1cc(OC(=O)N(C)C)nn1C(=O)N(C)C fall in?
stdout: highest

stdin: Which band does Cc1cc(C)c(C2=C(OC(=O)CC(C)(C)C)C3(CCCC3)OC2=O)c(C)c1 fall in?
stdout: highest

stdin: Which band does CCOc1ccc(C(C)(C)COCc2cccc(Oc3ccccc3)c2)cc1 fall in?
stdout: lowest

---

- System: Bacteroides clarus
- Method notes: growth AUC relative to DMSO control (median of replicates) (fraction); higher = more growth (less inhibition), active = hit call of the paper
- Measurement conditions: 20 µM; 24 h
Reported values of growth AUC for individual entries
Give the value as a plain number.

Example cases with answers are listed next.
[
  {
    "Compound": "BrCCBr",
    "growth AUC": 1.01
  },
  {
    "Compound": "O=[N+]([O-])C(Br)(CO)CO",
    "growth AUC": 1.01
  },
  {
    "Compound": "CCCN(CC)CC1COC2(CCC(C(C)(C)C)CC2)O1 (configuration not stated)",
    "growth AUC": 0.952
  },
  {
    "Compound": "CC(C1CC1)C(O)(Cn1cncn1)c1ccc(Cl)cc1 (mixture of isomers)",
    "growth AUC": 0.987
  },
  {
    "Compound": "CCCC1COC(Cn2cncn2)(c2ccc(Cl)cc2Cl)O1 (configuration not stated)",
    "growth AUC": 0.912
  }
]

stdin: Look up growth AUC for this compound: CNC(=O)O/N=C(\C)SC
stdout: 0.981

stdin: Look up growth AUC for this compound: CCOP(=O)(N=C1SCC(C)S1)OCC (configuration not stated)
stdout: 0.966

stdin: Look up growth AUC for this compound: Cc1cc(Cl)ccc1O[C@H](C)C(=O)O
stdout: 1

stdin: Look up growth AUC for this compound: COC(=O)NC(=S)Nc1ccccc1NC(=S)NC(=O)OC
stdout: 0.985

stdin: Look up growth AUC for this compound: CCc1cccc(CC)c1N(COC)C(=O)CCl
stdout: 0.991

stdin: Look up growth AUC for this compound: CCOP(=S)(OCC)SCn1nnc2ccccc2c1=O
stdout: 0.993

stdin: Look up growth AUC for this compound: CNC(=O)c1cc(Cl)cc(C)c1NC(=O)c1cc(Br)nn1-c1ncccc1Cl
stdout: 0.952

stdin: Look up growth AUC for this compound: CCC(CC)Nc1c([N+](=O)[O-])cc(C)c(C)c1[N+](=O)[O-]
stdout: 0.942

stdin: Look up growth AUC for this compound: c1cc2ccc3cccc4ccc(c1)c2c34
stdout: 1

stdin: Look up growth AUC for this compound: CC(C)[C@@H](Nc1ccc(C(F)(F)F)cc1Cl)C(=O)OC(C#N)c1cccc(Oc2ccccc2)c1 (some centres not stated)
stdout: 1.04

stdin: Look up growth AUC for this compound: CCOP(=S)(OCC)SCS(=O)(=O)C(C)(C)C
stdout: 0.944

stdin: Look up growth AUC for this compound: CCOP(=S)(OCC)SCCS(=O)(=O)CC
stdout: 1

stdin: Look up growth AUC for this compound: Oc1ccccc1Cl
stdout: 0.993

stdin: Look up growth AUC for this compound: Cc1c(COC(=O)[C@@H]2[C@H](/C=C(\Cl)C(F)(F)F)C2(C)C)cccc1-c1ccccc1
stdout: 0.998

---

- System: Escherichia coli ED1a
- Method notes: growth AUC relative to DMSO control (median of replicates) (fraction); higher = more growth (less inhibition), active = hit call of the paper
- Measurement conditions: 20 µM; 24 h
Reported values of growth AUC for individual entries
Give the value as a plain number.

Example cases with answers are listed next.
[
  {
    "Compound": "CNc1nc(C)c(C)c(OC(=O)N(C)C)n1",
    "growth AUC": 1.01
  },
  {
    "Compound": "CC1(C)C(C=C(Cl)Cl)[C@@H]1C(=O)O[C@@H](C#N)c1ccc(F)c(Oc2ccccc2)c1 (stereo not given in full)",
    "growth AUC": 0.956
  },
  {
    "Compound": "Cc1cc(C(C#N)c2ccc(Cl)cc2)c(Cl)cc1NC(=O)c1cc(I)cc(I)c1O (stereo not given)",
    "growth AUC": 0.958
  },
  {
    "Compound": "Cc1c(F)c(F)c(COC(=O)[C@@H]2[C@H](/C=C(\\Cl)C(F)(F)F)C2(C)C)c(F)c1F (mixture of isomers)",
    "growth AUC": 1
  },
  {
    "Compound": "COc1cc(OC)n2nc(S(=O)(=O)Nc3c(Cl)ccc(C)c3Cl)nc2n1",
    "growth AUC": 0.993
  },
  {
    "Compound": "CNC(=O)Oc1ccccc1C(C)C",
    "growth AUC": 1.01
  }
]

stdin: Look up growth AUC for this compound: CC(C)(C)C(O)(CCc1ccc(Cl)cc1)Cn1cncn1 (stereo not given)
stdout: 1.01

stdin: Look up growth AUC for this compound: C/C(=N/Nc1nc(C)cc(C)n1)c1ccccc1C
stdout: 1.02

stdin: Look up growth AUC for this compound: CCCN(CCC)N=O
stdout: 1.03

stdin: Look up growth AUC for this compound: CCOP(=S)(OCC)SCCS(=O)(=O)CC
stdout: 1.05
